# TARGET_OR_SYSTEM: Amine oxidase [flavin-containing] B (Homo sapiens, UniProt P27338)
# Sequence (P27338 whole entry): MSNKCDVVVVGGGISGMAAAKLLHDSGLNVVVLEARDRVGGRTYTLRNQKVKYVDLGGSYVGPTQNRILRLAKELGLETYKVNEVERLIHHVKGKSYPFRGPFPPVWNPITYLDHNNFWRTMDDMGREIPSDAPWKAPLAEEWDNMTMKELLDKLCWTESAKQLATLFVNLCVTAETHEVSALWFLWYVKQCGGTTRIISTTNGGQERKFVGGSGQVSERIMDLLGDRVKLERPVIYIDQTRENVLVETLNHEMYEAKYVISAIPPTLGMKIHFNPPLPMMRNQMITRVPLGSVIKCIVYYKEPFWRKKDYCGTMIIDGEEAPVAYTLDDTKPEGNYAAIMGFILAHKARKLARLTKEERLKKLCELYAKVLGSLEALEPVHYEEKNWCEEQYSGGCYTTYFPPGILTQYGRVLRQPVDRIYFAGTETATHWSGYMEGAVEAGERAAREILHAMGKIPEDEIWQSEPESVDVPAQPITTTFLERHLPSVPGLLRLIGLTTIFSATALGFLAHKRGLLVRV
# PROTOCOL: Inhibition of recombinant human MAO-B using benzylamine as substrate preincubated for 15 mins followed by substrate addition measured after 20 mins by amplex red reagent based spectrophotometric assay
Hi! Could you tag entries with IC50 below 3000 nM as TRUE, and those at or above as FALSE? Much appreciated.

>>> df
                             smiles_repr  label
 0              NCCc1ccc(-c2ccccc2Cl)cc1  FALSE
 1             NCCc1ccc(OCc2ccccc2Cl)cc1   TRUE
 2      NCCc1ccc(-c2ccc(C(F)(F)F)cc2)cc1   TRUE
 3            COc1cccc(-c2ccc(CCN)cc2)c1  FALSE
 4              NCCc1ccc(OCc2ccccc2F)cc1   TRUE
 5            NCCc1ccc(-c2cccc(Cl)c2)cc1   TRUE
 6  Cl.NCCc1ccc(OCc2ccc(C(F)(F)F)cc2)cc1   TRUE
 7            NCCc1ccc(-c2ccc(Cl)cc2)cc1   TRUE
 8                Nc1ccc(OCc2ccccc2F)cc1  FALSE
 9      NCCc1ccc(-c2cccc(C(F)(F)F)c2)cc1   TRUE
10           NCCc1ccc(OCc2cccc(Cl)c2)cc1   TRUE
11             NCCc1ccc(-c2ccc(F)cc2)cc1  FALSE

Source of measurements: ChEMBL document CHEMBL4177719
